# Tested system: PolQ ATPase enzyme (1-894) (Homo sapiens (Human))
# Sequence (O75417 1-894): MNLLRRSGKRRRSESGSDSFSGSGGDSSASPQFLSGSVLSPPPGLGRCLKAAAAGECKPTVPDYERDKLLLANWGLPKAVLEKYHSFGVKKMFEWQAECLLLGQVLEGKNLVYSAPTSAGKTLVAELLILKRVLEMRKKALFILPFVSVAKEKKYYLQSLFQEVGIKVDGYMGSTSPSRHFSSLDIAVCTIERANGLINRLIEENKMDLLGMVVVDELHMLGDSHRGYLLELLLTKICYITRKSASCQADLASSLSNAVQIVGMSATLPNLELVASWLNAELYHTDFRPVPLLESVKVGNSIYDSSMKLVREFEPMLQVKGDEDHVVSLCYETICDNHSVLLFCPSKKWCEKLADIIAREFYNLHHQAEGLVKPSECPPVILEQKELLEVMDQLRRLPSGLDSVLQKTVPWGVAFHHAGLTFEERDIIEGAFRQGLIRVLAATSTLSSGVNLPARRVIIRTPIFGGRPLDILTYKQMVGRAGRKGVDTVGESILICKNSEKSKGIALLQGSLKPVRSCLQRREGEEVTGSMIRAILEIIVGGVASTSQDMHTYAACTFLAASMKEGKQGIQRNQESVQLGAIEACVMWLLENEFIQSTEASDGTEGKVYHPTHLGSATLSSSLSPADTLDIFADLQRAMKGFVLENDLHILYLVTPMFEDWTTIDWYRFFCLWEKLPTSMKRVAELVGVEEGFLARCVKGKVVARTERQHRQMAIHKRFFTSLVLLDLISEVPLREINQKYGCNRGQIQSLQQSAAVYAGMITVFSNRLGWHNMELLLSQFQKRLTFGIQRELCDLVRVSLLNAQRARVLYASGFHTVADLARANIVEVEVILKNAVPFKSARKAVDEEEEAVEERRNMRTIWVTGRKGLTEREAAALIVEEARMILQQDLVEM
# Procedure details: Polθ ATPase enzymatic assay (0.5 nM enzyme concentration), ADP-Glo
# Assay type: biochemical
# Experimental conditions: average IC50; 0.5 nM PolQ ATPase enzyme (1-894)
Attribute measured: IC50 (nM)

| Molecule | Tested system | Reported relation | Measured result |
| --- | --- | --- | --- |
| COc1cnc(Cl)cc1-c1cc(-c2ccn(C)n2)ccc1C(=O)Nc1nnc(C#CC2CC2)s1 [Compound 307] | PolQ ATPase enzyme (1-894) (Homo sapiens (Human)) | < | 0.25 |
| COc1cnc(C(F)F)cc1-c1cc(C2=CCOCC2)ncc1C(=O)Nc1nnc(C#CC2CC2)s1 [Compound 284] | PolQ ATPase enzyme (1-894) (Homo sapiens (Human)) | = | 5.6 |
| COc1cnc(C(F)F)cc1-c1cc(C2CCN(C)C2=O)ccc1C(=O)Nc1nnc(C#CC2CC2)s1 (stereo not shown) [Compound 282] | PolQ ATPase enzyme (1-894) (Homo sapiens (Human)) | = | 0.26 |
| COc1cnc(C(F)F)cc1-c1cc(-n2ccc(C(F)(F)F)cc2=O)ncc1C(=O)Nc1nnc(C#CC2CC2)s1 [Compound 445] | PolQ ATPase enzyme (1-894) (Homo sapiens (Human)) | < | 0.25 |

----------
# Tested system: PolQ ATPase enzyme (1-894) (Homo sapiens (Human))
# Procedure details: Polθ ATPase enzymatic assay (0.5 nM enzyme concentration), ADP-Glo
# Assay type: biochemical
# Experimental conditions: average IC50; 0.5 nM PolQ ATPase enzyme (1-894)

| Compound | Scale unit | Reported relation | IC50 |
| --- | --- | --- | --- |
| COc1cnc(C(F)F)cc1-c1cc(-n2cc(C)ccc2=O)ncc1C(=O)Nc1nnc(C#CC2CC2)s1 [Compound 440] | nM | < | 0.25 |
| COc1cnc(C(F)(F)F)cc1-c1cn(C)c(=O)cc1C(=O)Nc1nnc(C#CC2CC2)s1 [Compound 59] | nM | = | 1.89 |
| COc1cnc(C(F)F)cc1-c1cc(-c2noc(C)n2)ncc1C(=O)Nc1nnc(C#CC2CC2)s1 [Compound 428] | nM | < | 0.25 |
| COc1ccc(C(F)(F)F)cc1-c1cn(C2COC2)c(=O)cc1C(=O)Nc1nnc(C#Cc2cc(C)[nH]n2)s1 [Compound 78] | nM | = | 2.71 |

----------
# Tested system: PXR nuclear receptor (Homo sapiens (Human))
# Sequence (O75469 whole entry): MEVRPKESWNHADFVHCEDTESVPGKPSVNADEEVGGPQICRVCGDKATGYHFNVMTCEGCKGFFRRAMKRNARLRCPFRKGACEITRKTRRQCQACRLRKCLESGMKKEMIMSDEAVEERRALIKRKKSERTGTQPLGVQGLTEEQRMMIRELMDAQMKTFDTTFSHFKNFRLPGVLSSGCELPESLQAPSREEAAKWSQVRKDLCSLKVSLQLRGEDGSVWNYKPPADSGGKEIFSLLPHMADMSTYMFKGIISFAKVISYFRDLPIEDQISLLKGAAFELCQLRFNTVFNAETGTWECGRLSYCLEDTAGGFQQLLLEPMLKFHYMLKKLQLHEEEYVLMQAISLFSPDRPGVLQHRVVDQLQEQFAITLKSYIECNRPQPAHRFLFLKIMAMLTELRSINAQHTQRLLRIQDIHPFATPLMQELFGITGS
# Procedure details: PXR method: luciferase reporter gene activation in transfected tumor cells
# Assay type: cell-based
# Experimental conditions: percentage of the response given by Rifampicin at 10 μM; test compound 0.03-10 μM, 24 h
Measured PXR activation (% Max activity) by item
Attribute measured: PXR activation (% Max activity) (%)

| Molecule | Attribute measured | Measured result |
| --- | --- | --- |
| COc1ccccc1-c1cnccc1C(=O)Nc1nnc(OCc2ccc(Cl)cc2)s1 | PXR activation (% Max activity) | 46.0 |
| COc1ccc(F)cc1-c1cnccc1C(=O)Nc1nnc(OCc2ccc(C#N)cc2)s1 | PXR activation (% Max activity) | 17 |
| C=C(C1=CN=CCC1C(=O)Nc1nnc(CCC2CC2)s1)/C(=C\N=C\Cl)OC (centres unmarked) | PXR activation (% Max activity) | 5.0 |
| COc1ccccc1-c1cnccc1C(=O)Nc1nnc(C#Cc2ccc(Cl)cc2)s1 [Compound 474] | PXR activation (% Max activity) | 3.0 |
| COc1ccccc1-c1cnccc1C(=O)Nc1nnc(OCc2ccc(C#N)cc2)s1 | PXR activation (% Max activity) | 36.0 |
